Entries and their measured GI50 follow.
# Test system: DU145
# methodDescription: Sulforhodamine B growth inhibition, prostate panel
# Assay type: cell-based, human
# assayConditions: Homo sapiens, DU-145, 48 h, SRB, read-out: GROWTH INHIBITION (GI 50)

1. CCC(=O)OC[C@@]1(C)C2CC[C@]3(CO3)C(C/C=C3/C(=O)OC[C@H]3OC(=O)/C=C/c3ccccc3)[C@@]2(C)CC[C@H]1OC(=O)CC (some centres unmarked) [Example-8]    4 µM
2. CCC(=O)OC[C@@]1(C)C2CC[C@]3(CO3)C(C/C=C3/C(=O)OC[C@H]3OC(=O)/C=C/c3ccc(OC)c(OC)c3)[C@@]2(C)CC[C@H]1OC(=O)CC (some centres unmarked) [Example-10]    2.5 µM

Exercise: Look at this compound and give its reported GI50. CCC(=O)OC[C@]1(C)C(OC(=O)CC)CC[C@]2(C)C(C/C=C3/C(=O)OCC3OC(=O)/C=C/c3ccc(OC)cc3)[C@]3(CCC12)CO3 (some centres unmarked) [Example-9]
Solution: 2 µM

Exercise: Another: C[C@]12CC[C@@H](OC(=O)CCl)[C@@](C)(COC(=O)CCl)C1CC[C@]1(CO1)C2C/C=C1/C(=O)OC[C@H]1OC(=O)CCl (some centres unmarked) [Example-4]
Solution: 4.5 µM

Exercise: Another: C[C@]12CC[C@@H](O)[C@@](C)(CO)C1CC[C@]1(CO1)C2C/C=C1/C(=O)OC[C@H]1OC(=O)/C=C/c1ccccc1 (some centres unmarked) [Example-7]
Solution: 5.5 µM

The measured values listed here are drawn from patent US6410590B1.
